Data export: Ki values recorded with Sodium-dependent serotonin transporter (Rattus norvegicus, UniProt P31652).
Sequence (P31652 whole entry): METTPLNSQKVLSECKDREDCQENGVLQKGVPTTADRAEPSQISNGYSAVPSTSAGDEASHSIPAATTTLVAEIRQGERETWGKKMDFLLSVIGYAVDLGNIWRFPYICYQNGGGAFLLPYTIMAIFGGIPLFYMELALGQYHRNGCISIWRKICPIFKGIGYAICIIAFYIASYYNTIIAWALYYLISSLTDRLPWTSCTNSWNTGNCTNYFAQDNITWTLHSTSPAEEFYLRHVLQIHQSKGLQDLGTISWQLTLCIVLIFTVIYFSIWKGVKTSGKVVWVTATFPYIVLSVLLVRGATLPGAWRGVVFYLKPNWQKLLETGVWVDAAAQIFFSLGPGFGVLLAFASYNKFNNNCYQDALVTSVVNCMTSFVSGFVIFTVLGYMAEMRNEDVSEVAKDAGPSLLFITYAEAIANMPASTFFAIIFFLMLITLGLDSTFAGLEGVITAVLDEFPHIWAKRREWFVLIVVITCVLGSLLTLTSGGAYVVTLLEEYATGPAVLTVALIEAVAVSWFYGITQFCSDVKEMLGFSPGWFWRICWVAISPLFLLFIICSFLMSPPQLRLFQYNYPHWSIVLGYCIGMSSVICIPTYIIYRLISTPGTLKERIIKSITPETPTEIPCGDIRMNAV
observable: Ki (nM)

compound: COC(=O)C1C(c2ccc(I)cc2)CC2CCC1N2CCCI (stereo unspecified)
measured: 8.84

compound: COC(=O)[C@H]1[C@@H](c2ccc(F)cc2)C[C@H]2CC[C@H]1N2C
measured: 181

compound: COC(=O)C1C(c2ccc(I)cc2)CC2CCC1N2CCCF (stereo unspecified)
measured: 0.11

compound: COC(=O)CN1C2CCC1C(C(=O)OC)C(c1ccc(I)cc1)C2 (stereo unspecified)
measured: 0.81

compound: COC(=O)C1C(c2ccc(I)cc2)CC2CCC1N2CCCO (stereo unspecified)
measured: 2.5

compound: COC(=O)C1C(c2ccc(I)cc2)CC2CCC1N2CCCBr (stereo unspecified)
measured: 0.35

---

pKi: −log10 of the molar value.
Here we list compounds with their recorded pKi when tested on Norepinephrine transporter (Rattus norvegicus, UniProt Q9WTR4).
Sequence (Q9WTR4 whole entry): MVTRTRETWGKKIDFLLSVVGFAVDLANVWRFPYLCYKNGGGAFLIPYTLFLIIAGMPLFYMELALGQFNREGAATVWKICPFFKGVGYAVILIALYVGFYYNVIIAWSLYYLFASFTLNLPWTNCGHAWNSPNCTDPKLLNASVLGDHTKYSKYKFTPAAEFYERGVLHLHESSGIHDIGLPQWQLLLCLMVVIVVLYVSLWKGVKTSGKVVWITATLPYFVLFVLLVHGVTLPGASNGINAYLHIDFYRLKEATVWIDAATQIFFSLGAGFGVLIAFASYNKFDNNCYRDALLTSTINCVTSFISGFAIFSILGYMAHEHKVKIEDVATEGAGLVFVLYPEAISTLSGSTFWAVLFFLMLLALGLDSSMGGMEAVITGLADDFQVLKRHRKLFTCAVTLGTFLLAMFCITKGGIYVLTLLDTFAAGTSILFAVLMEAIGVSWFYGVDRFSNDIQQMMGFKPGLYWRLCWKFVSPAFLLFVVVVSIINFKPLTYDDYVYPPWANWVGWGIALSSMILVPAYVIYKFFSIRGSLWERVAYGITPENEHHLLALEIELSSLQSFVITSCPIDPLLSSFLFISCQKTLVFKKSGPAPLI

compound: COC(=O)C1C(c2ccc(I)cc2)CC2CCC1N2CC(F)F (stereo not drawn)
targetOrSystem: Norepinephrine transporter (Rattus norvegicus, UniProt Q9WTR4)
pKi: < 5.30
--
compound: COC(=O)C1C(c2ccc(I)cc2)CC2CCC1N2C(=O)C(C)C (stereo not drawn)
targetOrSystem: Norepinephrine transporter (Rattus norvegicus, UniProt Q9WTR4)
pKi: < 5.00
--
compound: CC(C)OC(=O)C1C(c2ccc(I)cc2)CC2CCC1N2CCF (stereo not drawn)
targetOrSystem: Norepinephrine transporter (Rattus norvegicus, UniProt Q9WTR4)
pKi: < 5.00

---

Listed below: Selectivity values for each entry.
- targetOrSystem: Monoamine transporters; Norepininephrine & dopamine (Rattus norvegicus) (UniProt P23977+Q9WTR4)
- experimentalDetails: Selectivity for Dopamine and Norepinephrine transporters
- Assay type: protein assay

compound: COC(=O)C1C(c2ccc(I)cc2)CC2CCC1N2C(=O)C(C)C (configuration not stated)
comparisonSign: >
Selectivity: 4.8
//
compound: COC(=O)C1C(c2ccc(I)cc2)CC2CCC1N2CC(OC)OC (configuration not stated)
comparisonSign: =
Selectivity: 16.2
//
compound: COC(=O)C1C(c2ccc(I)cc2)CC2CCC1N2C (configuration not stated)
comparisonSign: =
Selectivity: 2
//
compound: COC(=O)C1C(c2ccc(I)cc2)CC2CCC1N2CCF (configuration not stated)
comparisonSign: =
Selectivity: 23.2
//
compound: COC(=O)CN1C2CCC1C(C(=O)OC)C(c1ccc(I)cc1)C2 (configuration not stated)
comparisonSign: =
Selectivity: 2.5
//
compound: COC(=O)C1C(c2ccc(I)cc2)CC2CCC1N2CCCI (configuration not stated)
comparisonSign: =
Selectivity: 129
//
compound: COC(=O)C1C(c2ccc(I)cc2)CC2CCC1N2CC(F)F (configuration not stated)
comparisonSign: >
Selectivity: 330

---

- targetOrSystem: Monoamine transporters; serotonin & dopamine (Rattus norvegicus) (UniProt P31652+P23977)
- Sequence (P23977 whole entry, looked up): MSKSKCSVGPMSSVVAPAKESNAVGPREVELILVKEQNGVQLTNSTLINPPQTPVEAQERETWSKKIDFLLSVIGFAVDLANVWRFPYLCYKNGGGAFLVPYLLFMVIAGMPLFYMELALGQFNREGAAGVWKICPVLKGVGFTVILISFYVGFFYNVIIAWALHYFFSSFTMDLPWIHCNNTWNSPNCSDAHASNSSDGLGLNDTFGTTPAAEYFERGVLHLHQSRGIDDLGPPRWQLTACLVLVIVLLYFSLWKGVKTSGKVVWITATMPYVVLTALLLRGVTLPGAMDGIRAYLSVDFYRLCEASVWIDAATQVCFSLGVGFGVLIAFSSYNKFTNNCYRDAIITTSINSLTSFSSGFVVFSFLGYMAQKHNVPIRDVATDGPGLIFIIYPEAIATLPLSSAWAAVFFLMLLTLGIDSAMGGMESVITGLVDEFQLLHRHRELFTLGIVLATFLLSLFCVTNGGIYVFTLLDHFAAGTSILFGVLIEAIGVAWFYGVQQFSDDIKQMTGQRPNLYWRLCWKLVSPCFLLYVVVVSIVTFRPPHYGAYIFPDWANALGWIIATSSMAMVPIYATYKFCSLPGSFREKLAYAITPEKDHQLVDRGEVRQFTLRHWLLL
- Sequence (P31652 whole entry, looked up): as the sequence (P31652 whole entry) above
- experimentalDetails: Selectivity for Dopamine and Serotonin transporters
- Format: protein assay
# binning rule on Selectivity: low group = under 0.1, middle group = from 0.1 up to 0.3, high group = 0.3 and over

compound: COC(=O)C1C(c2ccc(I)cc2)CC2CCC1N2CCCI (stereo unspecified)
targetOrSystem: Monoamine transporters; serotonin & dopamine (Rattus norvegicus) (UniProt P31652+P23977)
classification: middle group

compound: COC(=O)C1C(c2ccc(I)cc2)CC2CCC1N2CCCF (stereo unspecified)
targetOrSystem: Monoamine transporters; serotonin & dopamine (Rattus norvegicus) (UniProt P31652+P23977)
classification: low group

compound: CC(C)OC(=O)C1C(c2ccc(I)cc2)CC2CCC1N2CCF (stereo unspecified)
targetOrSystem: Monoamine transporters; serotonin & dopamine (Rattus norvegicus) (UniProt P31652+P23977)
classification: high group

compound: COC(=O)C1C(c2ccc(I)cc2)CC2CCC1N2CCF (stereo unspecified)
targetOrSystem: Monoamine transporters; serotonin & dopamine (Rattus norvegicus) (UniProt P31652+P23977)
classification: low group

compound: COC(=O)C1C(c2ccc(I)cc2)CC2CCC1N2C(=O)C(C)C (stereo unspecified)
targetOrSystem: Monoamine transporters; serotonin & dopamine (Rattus norvegicus) (UniProt P31652+P23977)
classification: low group

compound: COC(=O)C1C(c2ccc(I)cc2)CC2CCC1N2CCCBr (stereo unspecified)
targetOrSystem: Monoamine transporters; serotonin & dopamine (Rattus norvegicus) (UniProt P31652+P23977)
classification: middle group

compound: COC(=O)C1C(c2ccc(I)cc2)CC2CCC1N2CC(F)F (stereo unspecified)
targetOrSystem: Monoamine transporters; serotonin & dopamine (Rattus norvegicus) (UniProt P31652+P23977)
classification: high group

compound: COC(=O)C1C(c2ccc(I)cc2)CC2CCC1N2CC(OC)OC (stereo unspecified)
targetOrSystem: Monoamine transporters; serotonin & dopamine (Rattus norvegicus) (UniProt P31652+P23977)
classification: middle group

compound: COC(=O)C1C(c2ccc(I)cc2)CC2CCC1N2C (stereo unspecified)
targetOrSystem: Monoamine transporters; serotonin & dopamine (Rattus norvegicus) (UniProt P31652+P23977)
classification: high group
